Test System: Phosphatidylinositol 4,5-bisphosphate 3-kinase catalytic subunit alpha isoform (Homo sapiens, UniProt P42336)
Sequence (P42336 whole entry, canonical isoform): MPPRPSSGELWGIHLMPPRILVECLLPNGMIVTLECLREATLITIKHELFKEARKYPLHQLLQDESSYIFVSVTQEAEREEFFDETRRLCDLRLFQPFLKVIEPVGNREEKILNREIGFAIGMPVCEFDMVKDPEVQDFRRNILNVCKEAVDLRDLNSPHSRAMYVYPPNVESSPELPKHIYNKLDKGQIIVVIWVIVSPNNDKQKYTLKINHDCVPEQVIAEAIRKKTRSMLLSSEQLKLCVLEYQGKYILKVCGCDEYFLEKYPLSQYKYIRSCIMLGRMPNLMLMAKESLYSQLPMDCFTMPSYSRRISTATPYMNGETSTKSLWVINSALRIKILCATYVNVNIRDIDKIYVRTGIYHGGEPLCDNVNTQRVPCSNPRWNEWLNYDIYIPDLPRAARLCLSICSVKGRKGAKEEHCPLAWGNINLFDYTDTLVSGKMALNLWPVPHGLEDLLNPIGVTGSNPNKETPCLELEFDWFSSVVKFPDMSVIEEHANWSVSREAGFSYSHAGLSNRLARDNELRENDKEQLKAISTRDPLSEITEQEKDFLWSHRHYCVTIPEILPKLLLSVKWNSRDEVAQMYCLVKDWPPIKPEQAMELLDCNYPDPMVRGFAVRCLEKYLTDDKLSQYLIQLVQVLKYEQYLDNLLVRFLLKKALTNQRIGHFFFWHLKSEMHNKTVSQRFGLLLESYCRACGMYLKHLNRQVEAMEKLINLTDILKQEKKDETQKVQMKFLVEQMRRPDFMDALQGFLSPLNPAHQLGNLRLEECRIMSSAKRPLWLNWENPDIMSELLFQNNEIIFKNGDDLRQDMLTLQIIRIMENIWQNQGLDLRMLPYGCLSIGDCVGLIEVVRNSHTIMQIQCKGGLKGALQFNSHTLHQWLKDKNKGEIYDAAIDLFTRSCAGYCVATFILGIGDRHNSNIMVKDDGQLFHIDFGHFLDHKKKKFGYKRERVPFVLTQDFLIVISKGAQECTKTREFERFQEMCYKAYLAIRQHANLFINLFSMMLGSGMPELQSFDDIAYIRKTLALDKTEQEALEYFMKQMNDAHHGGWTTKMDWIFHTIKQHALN
Attribute Measured: IC50

Entry under review: "CCNC(=O)Nc1ccc(-c2nccc(N3CCOCC3)n2)cc1" . Reported IC50?
12.6 µM

State the recorded IC50 for this entry: "CCNC(=O)Nc1ccc(-c2nc(C(C)(C)S(C)(=O)=O)cc([C@]34CCOC[C@H]3C4)n2)cc1"
> 31.6 µM

Could you share which IC50 value was measured for "CC(C)(c1cc([C@@]23CCOC[C@@H]2C3)nc(-c2ccc(NC(=S)NCCO)cc2)n1)S(C)(=O)=O" ?
7.94 µM

Any idea what its IC50 is? The compound is "CCNC(=O)Nc1ccc(-c2nccc(N3CCOC[C@@H]3C)n2)cc1"
6.31 µM

// query IC50 value for entry "CS(=O)(=O)Cc1cc([C@]23CCOC[C@H]2C3)nc(-c2cccc(O)c2)n1"
20 µM

Item under review: "CC(C)(c1cc([C@]23CCOC[C@H]2C3)nc(-c2cccc(O)c2)n1)S(C)(=O)=O" . Reported IC50?
15.8 µM

Recorded IC50 for "CS(=O)(=O)Cc1cc(C2=CCOCC2)nc(-c2cccc(O)c2)n1" , please?
6.31 µM

Consider the compound shown here: "CNCC(=O)Nc1ccc(-c2nc(N3CCOC[C@@H]3C)cc(C(C)(C)S(C)(=O)=O)n2)cc1" What is its recorded IC50?
15.8 µM

Data request, read-out IC50, for "CCNC(=O)Nc1ccc(-c2nc(CS(C)(=O)=O)cc(N3CCOC[C@@H]3C)n2)cc1"
15.8 µM

IC50 for "CCNC(=O)Nc1ccc(-c2nc(CS(C)(=O)=O)cc([C@@]34CCOC[C@@H]3C4)n2)cc1" ?
> 31.6 µM

Request the reported IC50 associated with "CCNC(=O)Nc1ccc(-c2nc(CS(C)(=O)=O)cc([C@]34CCOC[C@H]3C4)n2)cc1"
> 31.6 µM

Value lookup for IC50; key = "Oc1cccc(-c2nccc([C@]34CCOC[C@H]3C4)n2)c1"
2.51 µM

Record request: IC50 value, item "CNCC(=O)Nc1ccc(-c2nc(C(C)(C)S(C)(=O)=O)cc([C@]34CCOC[C@H]3C4)n2)cc1"
> 31.6 µM

# input compound: "C[C@H]1COCCN1c1cc(C(C)(C)S(C)(=O)=O)nc(-c2cccc(O)c2)n1" ; wanted: its IC50
3.16 µM

Fill in the blank: the reported IC50 of "CCNC(=O)Nc1ccc(-c2nc(N3CCOC[C@@H]3C)cc(C(C)(C)S(C)(=O)=O)n2)cc1" is ____.
7.94 µM

For "Oc1cccc(-c2nccc(C3CCOCC3)n2)c1" , what is its reported IC50?
15.8 µM

Fill in: IC50 of "Oc1cccc(-c2nccc([C@@]34CCOC[C@@H]3C4)n2)c1" is ___
6.31 µM

Report IC50 for "CCNC(=O)Nc1ccc(-c2nc(C(C)(C)S(C)(=O)=O)cc([C@@]34CCOC[C@@H]3C4)n2)cc1" please.
25.1 µM

Report IC50 for "CCNC(=O)Nc1ccc(-c2nccc([C@]34CCOC[C@H]3C4)n2)cc1" please.
25.1 µM
